B1: CD2-associated protein, residues 271 to 331; numbered along this chain, Q9Y5K6 (parent)
chain: KEYCRTLFAYEGTNEDELTFKEGEIIHLISKETGEAGWWRGELNGKEGVFPDNFAVQINEL

- Variants of: B1
- protocolText: abundance fitness (aPCA) (normalised: wild type 0, dead -1); higher = more abundant; growth selection in yeast, the domain comes from the species named
- particulars: Homo sapiens
measuredQuantity: abundance fitness
Output spec: single numeric token, no unit.

Give the reported value of abundance fitness for this record: F54P -0.572

Supply recorded abundance fitness for T6D here. -0.963

Consider the variant E17I and give its recorded abundance fitness. -0.991

Given C4T , respond with its abundance fitness. -0.714

Return abundance fitness for the following variant: T6A -0.014

Given the variant N14R , write its reported abundance fitness. -0.061

Could you please provide reported abundance fitness for E35G ? Thanks! -0.125

Please supply the value of reported abundance fitness for the item G34N -0.426

Please indicate abundance fitness recorded for Y3P -0.75

Give me measured abundance fitness, please, for this variant: T33H -0.209

Identify measured abundance fitness associated with N14V -0.421

Supply reported abundance fitness belonging to this variant: E42S -0.05
